Values from PubChem BioAssay AID1851

# study_target: Cytochrome P450 2D6 (Homo sapiens)
# test_name: Cytochrome panel assay with activity outcomes
# assay_context: recombinant CYP, pro-luciferin dealkylation, luminescence, p450-cyp2d6; series mostly up to 57.1 µM
In all, about 16,000 compounds went through this assay and about 2,600 (16%) were called active. About 20% were inconclusive and are not listed. The call rests on the fitted dose curve; in most records, active means well fitted curve in the direction sought with a large enough effect; inconclusive means small, poorly fitted or top-dose-only effect, or effect the other way; inactive means no such curve, though single readings can be large or run the other way. Only a sample is shown.
// classify into true (1) = active, false (0) = inactive

>  <molecule>
O=C(Nc1cccn(Cc2ccc(F)cc2)c1=O)NC1CCCCC1

>  <label_value>
false (0)

$$$$
>  <molecule>
CCC(C)NC(=O)C1CCCN(C(=O)NC2CCCCC2)C1 (stereo not given)

>  <label_value>
false (0)

$$$$
>  <molecule>
O=C1NCCCC1C(=O)Nc1ccccc1C(F)(F)F (stereo not given)

>  <label_value>
false (0)

$$$$
>  <molecule>
O=C(NCCCN1CCN(C2CCCCC2)CC1)Nc1ccccc1C(F)(F)F

>  <label_value>
true (1)

$$$$

Shift focus to the following entry.
Would you mind telling me which call this test gave CC(C)C(NC(=O)C1CCCCC1)C(=O)NCc1ccccn1 (stereo not given) ? false (0)

----------
# study_target: Cytochrome P450 2D6 (Homo sapiens)
# test_name: Cytochrome panel assay with activity outcomes
# assay_context: recombinant CYP, pro-luciferin dealkylation, luminescence, p450-cyp2d6; series mostly up to 57.1 µM
# Description: The P450 gene superfamily is involved in the metabolism and clearance of xenobiotics. This assay used various human CYP P450 isozymes to measure the dealkylation of various pro-luciferin substrates to luciferin. The luciferin is then measured by luminescence after the addition of a luciferase detection reagent. […] Inhibitors and some substrates limit the production of luciferin, and decrease measured luminescence. […] 8, Detection, 1 sec, ViewLux luminescent read […]
In all, about 16,000 compounds went through this assay and about 2,600 (16%) were called active. Not shown: some 20% with an inconclusive outcome. The list is a sample of the results.
metric_name: AC50

>  <sample_smiles>
COc1ccccc1CNS(=O)(=O)c1ccc2[nH]cc(C(=O)O)c(=O)c2c1

>  <result>
inactive

$$$$
>  <sample_smiles>
C[N+](C)(CCCOc1ccccc1)c1ccccc1

>  <result>
15.8 nM (active)

$$$$
>  <sample_smiles>
O=C(Nc1c2c(nn1-c1ccc(F)cc1)CS(=O)(=O)C2)C12CC3CC(CC(C3)C1)C2

>  <result>
inactive

$$$$

----------
# study_target: Cytochrome P450 2D6 (Homo sapiens) (UniProt P10635)
# Sequence (P10635 whole entry, looked up): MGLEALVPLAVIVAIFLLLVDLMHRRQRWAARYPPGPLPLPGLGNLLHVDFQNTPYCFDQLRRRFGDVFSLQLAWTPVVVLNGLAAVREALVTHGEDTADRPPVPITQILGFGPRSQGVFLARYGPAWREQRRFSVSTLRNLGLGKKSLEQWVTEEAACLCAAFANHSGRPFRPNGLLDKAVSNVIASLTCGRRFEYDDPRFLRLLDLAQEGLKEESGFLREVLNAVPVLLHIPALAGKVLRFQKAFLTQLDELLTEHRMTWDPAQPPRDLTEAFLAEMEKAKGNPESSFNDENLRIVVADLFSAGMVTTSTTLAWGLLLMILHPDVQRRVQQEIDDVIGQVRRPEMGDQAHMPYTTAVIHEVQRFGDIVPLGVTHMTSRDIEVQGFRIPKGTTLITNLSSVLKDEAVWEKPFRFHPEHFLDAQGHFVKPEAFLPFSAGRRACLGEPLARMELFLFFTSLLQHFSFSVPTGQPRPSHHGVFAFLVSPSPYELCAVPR
# test_name: Cytochrome panel assay with activity outcomes
# assay_context: recombinant CYP, pro-luciferin dealkylation, luminescence, p450-cyp2d6; series mostly up to 57.1 µM
Among all 16,000 compounds or so, about 2,600 (16%) were called active. Not shown: some 20% with an inconclusive outcome. Calls come from the whole dose curve; as a rule, active = well fitted curve in the direction sought with a large enough effect; inconclusive = small, poorly fitted or top-dose-only effect, or effect the other way; inactive = no such curve, though single readings can be large or run the other way. These entries were drawn from the full list.
// classify into Y (active), N (inactive)

Would you mind telling me which call this test gave Cc1ccc(C(=O)NCCCN2CCOCC2)cc1N1CCCC1=O ? N

Would you mind telling me which call this test gave Cc1ccc(N2CC(C(=O)Nc3cc(C)on3)CC2=O)cc1 (stereo not given) ? N

Would you mind telling me which call this test gave CC1=C(C#N)C(NC(=O)C2CCCCC2)(C(F)(F)F)C(=O)N1 (stereo not given) ? N

----------
# study_target: Cytochrome P450 2D6 (Homo sapiens) (UniProt P10635)
# test_name: Cytochrome panel assay with activity outcomes
# assay_context: recombinant CYP, pro-luciferin dealkylation, luminescence, p450-cyp2d6; series mostly up to 57.1 µM
The whole screen tested about 16,000 compounds, of which about 2,600 (16%) were called active. Inconclusive results (about 20%) are left out. Calls come from the whole dose curve; as a rule, active = well fitted curve in the direction sought with a large enough effect; inconclusive = small, poorly fitted or top-dose-only effect, or effect the other way; inactive = no such curve, though single readings can be large or run the other way. Only a sample is shown.
// classify into active, inactive

Some solved cases for reference:
>  <sample_smiles>
CCOc1ccc(OCCOc2ncnc3ccccc23)cc1

>  <study_target>
Cytochrome P450 2D6 (Homo sapiens) (UniProt P10635)

>  <label_value>
inactive

$$$$
>  <sample_smiles>
CC(C)(C)NC[C@@H](O)COc1ccccc1C1CCCC1

>  <study_target>
Cytochrome P450 2D6 (Homo sapiens) (UniProt P10635)

>  <label_value>
active

$$$$
>  <sample_smiles>
CCCCC1=NN2C(=N)CC(=O)N=C2S1

>  <study_target>
Cytochrome P450 2D6 (Homo sapiens) (UniProt P10635)

>  <label_value>
inactive

$$$$

Would you mind telling me which call this test gave CC(C)CC(=O)N1CCC(O)(CS(=O)(=O)Cc2ccc(Cl)cc2)CC1 ? inactive

Would you mind telling me which call this test gave CCNC(=S)NNC(=O)c1cc(C2CC2)nc2ccccc12 ? inactive

----------
# study_target: Cytochrome P450 2D6 (Homo sapiens)
# test_name: Cytochrome panel assay with activity outcomes
# assay_context: recombinant CYP, pro-luciferin dealkylation, luminescence, p450-cyp2d6; series mostly up to 57.1 µM
Screen size: about 16,000 compounds; about 2,600 (16%) were called active. Inconclusive results (about 20%) are left out. Calls follow the shape of the dose curve; as a rule, active = well fitted curve in the direction sought with a large enough effect; inconclusive = small, poorly fitted or top-dose-only effect, or effect the other way; inactive = no such curve, though single readings can be large or run the other way. These entries were drawn from the full list.
// classify into active, inactive

Some solved cases for reference:
>  <compound>
CCOC(=O)c1ccc(N/C=C/C(=O)c2ccc(OC)cc2)cc1

>  <label_value>
inactive

$$$$
>  <compound>
CCOC(=O)c1ccc(N)cc1

>  <label_value>
inactive

$$$$
>  <compound>
CCOc1ccc(N2C(=O)/C(=C/c3cc(OC)c(OC)c(OC)c3)N(CC(=O)OC)C2=S)cc1

>  <label_value>
inactive

$$$$
>  <compound>
CCn1c(=O)c2c(O)cc(=O)oc2c2ccccc21

>  <label_value>
inactive

$$$$
>  <compound>
Cc1ccccc1NC(=O)CSc1nc(N2CCCCC2)nc(N2CCCCC2)n1

>  <label_value>
inactive

$$$$

Would you mind telling me which call this test gave COc1ccccc1-c1c(C)oc2c(CN3CCN(CCO)CC3)c(O)ccc2c1=O ? inactive

Would you mind telling me which call this test gave Cn1cc(-c2nc3cnc(N4CCNCC4)nc3n(-c3ccccc3)c2=O)c2ccccc21 ? inactive

----------
# study_target: Cytochrome P450 2D6 (Homo sapiens)
# test_name: Cytochrome panel assay with activity outcomes
# assay_context: recombinant CYP, pro-luciferin dealkylation, luminescence, p450-cyp2d6; series mostly up to 57.1 µM
Among all 16,000 compounds or so, about 2,600 (16%) were called active. Roughly 20% stayed inconclusive and do not appear here. Calls come from the whole dose curve; as a rule, active = well fitted curve in the direction sought with a large enough effect; inconclusive = small, poorly fitted or top-dose-only effect, or effect the other way; inactive = no such curve, though single readings can be large or run the other way. A selection follows.
// classify into active, inactive

Some solved cases for reference:
>  <compound>
O=C(NCc1ccccc1Cl)c1cnccn1

>  <study_target>
Cytochrome P450 2D6 (Homo sapiens)

>  <label_value>
inactive

$$$$
>  <compound>
CCCOc1ccc(C2C(=O)N(C3CCCCC3)CC(=O)N2C2CC2)cc1OC (configuration not stated)

>  <study_target>
Cytochrome P450 2D6 (Homo sapiens)

>  <label_value>
inactive

$$$$
>  <compound>
CCOc1cc(C2NN=C(c3ccccc3)S2)ccc1OCc1ccccc1Cl (configuration not stated)

>  <study_target>
Cytochrome P450 2D6 (Homo sapiens)

>  <label_value>
inactive

$$$$

Would you mind telling me which call this test gave Cc1cccc(C)c1NC(=O)C(NC=O)c1ccccc1Cl (configuration not stated) ? inactive

Would you mind telling me which call this test gave CN(C)c1ccc(-c2nccc(NCc3ccccc3)n2)cc1 ? active

Would you mind telling me which call this test gave Cc1cccc(C)c1NC(=O)C(c1ccccc1)N1CCC1=O (configuration not stated) ? inactive

Would you mind telling me which call this test gave CCOc1cc(CNCCO)cc(Br)c1OCc1ccccc1Cl ? active

----------
# study_target: Cytochrome P450 2D6 (Homo sapiens)
# test_name: Cytochrome panel assay with activity outcomes
# assay_context: recombinant CYP, pro-luciferin dealkylation, luminescence, p450-cyp2d6; series mostly up to 57.1 µM
In all, about 16,000 compounds went through this assay and about 2,600 (16%) were called active. Inconclusive results (about 20%) are left out. The call rests on the fitted dose curve; in most records, active means well fitted curve in the direction sought with a large enough effect; inconclusive means small, poorly fitted or top-dose-only effect, or effect the other way; inactive means no such curve, though single readings can be large or run the other way. A selection follows.
// classify into Y for active, N for inactive

>  <molecule>
C=CCOc1ccc(CNC(C)(C)CO)cc1OCC

>  <study_target>
Cytochrome P450 2D6 (Homo sapiens)

>  <label_value>
Y

$$$$
>  <molecule>
COc1ccc([C@@H]2CNC(=O)C2)cc1OC1CCCC1

>  <study_target>
Cytochrome P450 2D6 (Homo sapiens)

>  <label_value>
N

$$$$
>  <molecule>
CCc1ccc(OCC(=O)NC(=S)Nc2ccc(F)cc2)c(Br)c1

>  <study_target>
Cytochrome P450 2D6 (Homo sapiens)

>  <label_value>
N

$$$$
>  <molecule>
COc1ccc(CNC(C)(C)C)cc1Cl

>  <study_target>
Cytochrome P450 2D6 (Homo sapiens)

>  <label_value>
N

$$$$
>  <molecule>
CCc1nc(N[C@H](C(=O)O)C(C)CC)c2oc3ccccc3c2n1 (stereo partly drawn)

>  <study_target>
Cytochrome P450 2D6 (Homo sapiens)

>  <label_value>
N

$$$$
>  <molecule>
C=CCn1c(=O)c2c(nc(Br)n2Cc2ccccc2Cl)n(C)c1=O

>  <study_target>
Cytochrome P450 2D6 (Homo sapiens)

>  <label_value>
N

$$$$
>  <molecule>
Cc1cccc(C)c1NC(=O)COc1cccc(/C=N/NC(=O)C(=O)NCc2ccccc2)c1

>  <study_target>
Cytochrome P450 2D6 (Homo sapiens)

>  <label_value>
N

$$$$

Shift focus to the following entry.
Would you mind telling me which call this test gave Cc1ccc(C2C(C=Nc3c(C)n(C)n(-c4ccccc4)c3=O)=C(c3ccccc3)Oc3ccccc32)cc1 (stereo not drawn) ? N
